- System: OVCAR-4 ovarian
- Test method notes: NCI-60 one-dose screen, 48 h
- Protocol conditions: 10 µM unless noted
The panel holds about 83,000 compounds, 20% with a hit somewhere; the sample as a whole holds those more often. The source made the active and inactive calls. The calls were made as follows: active = growth percent below 10; inactive = the rest.
Classes used: active, inactive

Molecule	Discrete label
COc1ccc(C(O)c2cc3c(N)c(C(=O)Nc4cccc5ccccc45)sc3nc2C)cc1 (stereo not drawn)	inactive
C#CCOc1cccc(Nc2ncnc3c2ncn3C2CCN(C(=O)CCl)C2)c1 (stereo not drawn)	active
C=C1CC[C@@H]2C(C)(C)[C@H](O)CC[C@@]2(C)[C@@H]1COc1ccc2ccc(=O)oc2c1	inactive
N#CSc1c[nH]c2ccc(/C=C/C(=O)/C=C(O)/C=C/c3ccc4[nH]cc(SC#N)c4c3)cc12	inactive
CCOC(=O)CC1CSC(N/N=C/c2ccc(F)c(Br)c2)=N1 (stereo not drawn)	inactive
CCCCCc1ccc(S(=O)(=O)Nc2cc(-c3csc(NC(C)=O)n3)ccc2N2CCN(C)CC2)cc1	inactive
COc1cc2c(cc1OCCCN1CCN(C(=S)SCCC(C#N)(c3ccccc3)c3ccccc3)CC1)N=C[C@@H]1CCCN1C2=O	active
CCOC(=O)c1[nH]cc2c1CCc1sc(Nc3ccccn3)nc1-2	inactive
CCCC(=O)NC(c1ccc2c(c1)OCO2)c1cc(Cl)c2cccnc2c1O (stereo not drawn)	inactive
CCN(CC)C(=O)C1=C(C)NC(=O)NC1c1ccc2c(c1)OCO2 (stereo not drawn)	inactive
COc1ccc(-c2cc(-c3cc(OC)ccc3OC)nc(SCC(C)=O)c2C#N)cc1	inactive
CN1CCN(c2ccc(NC3=CC(=O)c4ncncc4C3=O)cc2)CC1	active
CC[C@@H](C(=O)[C@@H](C)[C@@H](O)[C@H](C)[C@@H]1O[C@@H]([C@@H](CC)C(=O)ONC(=O)c2ccccc2O)CC[C@@H]1C)C1O[C@]2(C=CC(=O)[C@]3(CC[C@@](C)([C@H]4CC[C@](O)(CC)[C@H](C)O4)O3)O2)[C@H](C)C[C@@H]1C (stereo partly drawn)	inactive
COc1ccc(-c2cn(Cc3cc4ccccc4s3)nn2)cc1OCCN1CCCCC1	inactive
c1cc(OCCCCCOc2cccc(-c3nc4ccccc4[nH]3)c2)cc(-c2nc3ccccc3[nH]2)c1	active
Cc1[nH]c(C(=O)Nc2ccccc2OC2CCN(CCN3CCOCC3)CC2)c(Cl)c1Cl	inactive
CN1C(=O)/C(=C/c2ccc(C(=O)Nc3ncc(Cc4cc(Cl)ccc4Cl)s3)cc2)SC1=S	inactive
Cc1cc(=O)n(C(=S)Nc2ccc(Cl)cc2)c2cc(O)ccc12	inactive

* * *

- Test system: SK-MEL-28 melanoma
- Test method notes: NCI-60 one-dose screen, 48 h
- Protocol conditions: 10 µM unless noted
Compounds without any hit were thinned out: in the full panel of roughly 83,000, 20% have a hit. Calls of active or inactive are those of the source. The calls were made as follows: active = growth percent below 10; inactive = the rest.
Classes used: yes = active, no = inactive

                                    compound     subject_of_test  discrete_label
 0       CN(C)/C(N)=N/N=C(\c1ccccc1)c1ccccn1  SK-MEL-28 melanoma              no
 1  O=C(C[C@]1(O)C(=O)Nc2ccc(Br)cc21)c1ccco1  SK-MEL-28 melanoma              no
 2     COc1cc(Cc2cc(OC)c(O)c(OC)c2)cc(OC)c1O  SK-MEL-28 melanoma              no
 3  O=CN1N=C(c2cccc(Nc3ccnc4cc(Cl)ccc34)c2)CC1c1ccc(Cl)cc1 (centres undefined)  SK-MEL-28 melanoma              no
 4  O=C(NCc1ccc(Cn2c(=O)sn(-c3ccccc3)c2=O)cc1)OCc1ccc2cccc(O)c2n1  SK-MEL-28 melanoma             yes
 5  COC12C=C/C(=C(/C(=O)OCCSc3ccnn3C)C(=O)CCCCCCCCC3(OC)C=C/C(=C(/C(=O)OCCSc4ccnn4C)C(=O)CCCCCCCC1)O3)O2  SK-MEL-28 melanoma             yes
 6  C=C1C(=O)O[C@H]2[C@H]1CC/C(CNC(=O)Cc1c[nH]c3ccccc13)=C\CC[C@@]1(C)O[C@@H]21  SK-MEL-28 melanoma             yes
 7  O=C1CCCC1[n+]1ccccc1 (centres undefined)  SK-MEL-28 melanoma              no
 8  COC12C=C/C(=C(/C(=O)OCc3cncnc3)C(=O)CCCCCCCCC3(OC)C=C/C(=C(/C(=O)OCc4cncnc4)C(=O)CCCCCCCC1)O3)O2  SK-MEL-28 melanoma             yes
 9     Fc1ccc(/C=C/[C@@H]2C[C@@H](F)CCO2)cc1  SK-MEL-28 melanoma              no
10  CNC(=O)c1cc(Oc2ccc3c(c2)sc2nc(-c4ccc(NC(=O)[C@@H](NC(=O)OC)C(C)C)cc4)cn23)ccn1  SK-MEL-28 melanoma              no
11  COC(=O)[C@@]1(C)CC[C@]2(C)CC[C@]3(C)C4=CC=C5C(=CC(=O)C(O)=C5C)[C@]4(C)[C@@H](O)C[C@@]3(C)[C@@H]2C1  SK-MEL-28 melanoma             yes
12  CCOC(=O)CC1CSC(N/N=C/c2ccc(F)c(Br)c2)=N1 (centres undefined)  SK-MEL-28 melanoma              no
13     Clc1ccc(Nc2ncc(Cc3cccc(Cl)c3Cl)s2)cc1  SK-MEL-28 melanoma              no
14  C[C@@H]1NC(=O)[C@H](Cc2ccccc2)N(Cc2cccnc2)C1=O  SK-MEL-28 melanoma              no
15  CCn1cc(C(=O)N/N=C/c2ccccc2)c(=O)c2cc(F)c(N3CCNC(C)C3)c(F)c21 (centres undefined)  SK-MEL-28 melanoma             yes
16  O=C1/C(=C/c2c[nH]c(=O)[nH]c2=O)SC(=S)N1Cc1ccccc1  SK-MEL-28 melanoma              no
17  O=C(NC1CCC(Br)CC1)C1CCCC(S(=O)(=O)NC2CCCCC2)C1 (centres undefined)  SK-MEL-28 melanoma              no
18  Nc1c(Br)cc2c(c1Br)Cc1cc([N+](=O)[O-])ccc1-2  SK-MEL-28 melanoma              no
